Study target: T1, Human FRα ECD-Avi-His (human, biotin on the Avi-tag (BirA) in the HTRF assays)
T1 construct: also called biotinylated human FRα; folate receptor alpha
T1 sequence (chain, as listed by the source limits assumed): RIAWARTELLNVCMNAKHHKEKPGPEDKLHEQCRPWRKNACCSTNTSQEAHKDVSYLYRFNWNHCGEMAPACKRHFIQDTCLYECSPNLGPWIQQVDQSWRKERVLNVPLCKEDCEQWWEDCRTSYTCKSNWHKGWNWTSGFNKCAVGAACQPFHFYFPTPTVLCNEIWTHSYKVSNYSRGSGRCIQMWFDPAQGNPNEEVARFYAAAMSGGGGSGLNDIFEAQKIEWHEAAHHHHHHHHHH
Test details: MOv19 HTRF epitope competition assay, geomean; IgG kept 2 weeks at 45°C; competitor MOv19
Assay metric: IC50

{"Binder": "AB1370095 hIgG1 (antibody, V domains shown) VH: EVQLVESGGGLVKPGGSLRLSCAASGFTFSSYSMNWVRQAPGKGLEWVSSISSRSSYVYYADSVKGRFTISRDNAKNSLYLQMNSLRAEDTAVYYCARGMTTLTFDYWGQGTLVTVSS VL: DIQMTQSPSSLSASVGDRVTITCRASQGISSFLAWFQQKPGKAPKSLIYAASSLQSGVPSKFSGSGSGTDFTLTISSLQPEDFATYYCQQYNSYPLTFGGGTKVEIKR", "Observed result": "4.31 nM"}
{"Binder": "AB1370035 hIgG1 (antibody, V domains shown) VH: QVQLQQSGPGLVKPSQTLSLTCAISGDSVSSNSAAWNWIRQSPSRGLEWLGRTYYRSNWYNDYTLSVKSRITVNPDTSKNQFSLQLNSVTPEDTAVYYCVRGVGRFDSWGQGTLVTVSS VL: DIQMTQSPSTLSASVGDRVIITCRASQSISSWLAWYQQKPGKAPKLLIYKASSLESGVPSRFSGSGSGTEFTLTITSLQPDDFASYYCQEYKTYSIFTFGPGTKVDIKR", "Observed result": "1.16 nM"}
{"Binder": "AB1370083 hIgG1 (antibody, V domains shown) VH: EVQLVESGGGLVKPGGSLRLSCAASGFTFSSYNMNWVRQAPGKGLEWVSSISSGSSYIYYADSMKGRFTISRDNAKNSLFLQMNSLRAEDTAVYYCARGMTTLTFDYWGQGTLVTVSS VL: DIQMTQSPSSLSASVGDRVTITCRASQGISTFLAWFQQKPGKAPKSLIYAASSLQSGVPSKFSGSGSETDFTLTISSLQPEDFATYYCQQYISYPLTFGGGTKVEIKR", "Observed result": "0.0665 nM"}
{"Binder": "AB1370026 hIgG1 (antibody, V domains shown) VH: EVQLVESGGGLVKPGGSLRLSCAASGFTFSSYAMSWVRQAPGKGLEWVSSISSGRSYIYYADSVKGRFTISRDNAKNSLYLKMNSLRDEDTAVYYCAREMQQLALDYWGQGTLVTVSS VL: DIQMTQSPSSLSASVGDRVTITCRASQGISNFLAWFQQAPGKAPKSLIYAASSLQSGVPSKFSGSGSGTDFTLTISSLQPEDFATYYCQQYNSYPFTFGQGTKLEIKR", "Observed result": "0.708 nM"}

Cited source: patent US20230295293A1
